Molecular target: T1, human CLL1 on the surface of transfected cells (HEK293-CLL1; HEK-293T membrane proteome array) (human, UniProt Q5QGZ9 1-265)
T1 construct: whole, on cells; also called HEK293-CLL1 cells; CLL1 target antigen
T1 sequence (looked up): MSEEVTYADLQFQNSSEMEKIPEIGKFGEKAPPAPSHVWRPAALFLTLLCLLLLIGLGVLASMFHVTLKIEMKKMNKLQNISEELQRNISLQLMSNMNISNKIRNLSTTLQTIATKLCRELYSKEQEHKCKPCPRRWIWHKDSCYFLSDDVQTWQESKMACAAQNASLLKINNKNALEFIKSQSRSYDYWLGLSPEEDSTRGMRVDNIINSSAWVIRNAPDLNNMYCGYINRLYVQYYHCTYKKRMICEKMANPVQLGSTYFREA
Assay: flow cytometry on HEK293 cells overexpressing CLL1, FITC goat anti-human IgG-Fc secondary; controls on the sheet: Cells + Secondary Antibody 1029.8, Blank 1041.3
property.label: MFI at 0.01ug/ml
Reply with the value as a number alone.

Check out these entries, answers already filled in.
{"binder": "chimeric antibody ch19C1 (antibody, V domains shown) VH: QVQLQQSGAELMKPGASVKISCKATGYTFSSYWIEWVKQRPGHGLEWIGEIFPGSGSIKYNEKFKGKATFTADTSSNTAYMQLSSLTSEDSAVHYCARGGTYNDYSLFDYWGQGTTLTVSS VL: QIVLTQSPAIMSASPGEKVTMTCSASSSVSYMYWYQQKPGSSPRLLIFDTSNLASGVPVRFSGSGSGTSYSLTISRMEAEDAATYYCQQWSSYPLTFGAGTKLELK", "property.label": "MFI at 0.01ug/ml", "reported.value": 4610}
{"binder": "chimeric antibody ch27H4 (antibody, V domains shown, also called parent antibody) VH: EVQLQQSGPELVKPGASVKISCKASGYSFTGYHMHWVKQSHVKSLEWIGRINPYNGAASHNQKFKDKATLTVDKSSSTAYMELHSLTSEDSAVYYCARGWDYDGGYYAMDYWGQGTSVTVSS VL: DIVMSQSPSSLAVSVGEKVTMSCKSSQSLLYSDNQKNYLAWYQQKPGQSPKLLIYWASTRESGVPDRFTGSGSGTDFTLTISSVKAEDLAVYYCQQYYTYPYTFGGGTKLEIK", "property.label": "MFI at 0.01ug/ml", "reported.value": 3510}

Next binder, MFI at 0.01ug/ml to be filled in.
Exercise: For the binder shown here, chimeric antibody ch23D7 (antibody, V domains shown) VH: QVQLQQPGSDLVRPGASVKLSCKASGYTFTRYWMHWVKQRPGHGLEWIGYIYPGSGTSNYDEKFKSKATLTVDTSSSTAYMQLSSLTSEDSAVYYCTREARYTMDYWGQGTSVTVSS VL: QIVLTQSPAIMSASPGEKVTMTCSASSSVSYIYWYQQKPGSSPGLLIYDTSNLASGVPVRFSGSGSGTSYSLTISRMEAEDAATYYCQQWSSFPPTFGAGTKLELK , give the reported MFI at 0.01ug/ml.
Solution: 4690
